Field: pKi. System: Adenosine receptor A3 (Homo sapiens, UniProt P0DMS8). Provenance: assorted publications.
pKi: −log10 of the molar value.
PROPERTY NAME: pKi

Oc1nc2ccccc2n2nc(-c3cccs3)nc12 8.70

P. CCn1cc2c(nc(NC(=O)Cc3cccc4ccccc34)n3nc(-c4ccco4)nc23)n1
Q. CC(C)NC(=O)Nc1nc2nn(CCCc3ccccc3)cc2c2nc(-c3ccco3)nn12
R. CCOC(=O)c1nc(N)nc2nn(C)cc12
S. CNC(=O)[C@H]1O[C@@H](n2cnc3c(NCc4cc(Cl)ccc4OC)ncnc32)[C@H](O)[C@@H]1CN
### Prompt Ascending by pKi, please: list the molecules accordingly. In your reply, arrange the labels in the requested order.
### Response R, S, Q, P

---

Literature survey of pKi (system: Adenosine receptor A3 (Homo sapiens)).
pKi: −log10 of the molar value.
PROPERTY NAME: pKi

Example cases with answers are listed next.
O=C([C@H]1O[C@@H](n2cnc3c(NCc4cccc(I)c4)nc(Cl)nc32)[C@H](O)[C@@H]1O)N1CCN(c2ccc(F)cc2)CC1 5.84
CCCn1c(=O)[nH]c2[nH]c(-c3ccc4cc(C(=O)O)ccc4c3)nc2c1=O 5.93
O=c1oc2c(O)cccc2cc1-c1cc(Br)cs1 6.13

A. CCCCCCn1c(=O)c2c(nc3cc(OC)ccn32)n(Cc2ccccc2)c1=O
B. N#Cc1c(N)nc(SCc2ccncc2)c(C#N)c1-c1ccco1
C. O=C(Cc1ccccc1)Nc1nc(NC2CCCCC2)nc2nc(-c3ccco3)nn12
### Prompt Order the 3 compounds from highest to lowest pKi. Labels, requested order.
### Response A, C, B

I. COCCNc1nc2nn(C)cc2c2nc(-c3ccco3)nn12
II. c1csc(-c2nc(C3CC3)nc3ccsc23)n1
### Prompt Input pair: I , II . Output: entry with lower pKi. Write down the label of the entry you select.
### Response II
(II: 6.02, I: 6.61)

1. Nc1nc(NC2CCCCC2)nc2nc(-c3ccco3)nn12
2. CC(C)NC(=O)N1CCC(NC(=O)Nc2nc3nn(C)cc3c3nc(-c4ccco4)nn23)CC1
### Prompt Sorting by pKi in descending order, would 1 or 2 appear first? Write the label of whichever entry you select.
### Response 2

---

Here we gather Ki data for Adenosine receptor A3 (Homo sapiens, UniProt P0DMS8) reported by several publications.
PROPERTY NAME: Ki (nM)

Here is how some compounds turned out for Ki.
CNC(=O)c1cnn(-c2nc(NC3CCCCC3)c3ncn([C@@H]4O[C@H](CO)[C@@H](O)[C@H]4O)c3n2)c1 158
O=c1[nH]cnc2cn(-c3ccccc3)nc12 185

A. O=c1[nH]c(=O)n(Cc2ccccc2)c2nc3cc(-c4ccccc4)ccn3c12
B. Cn1cc2c(nc(NC(=O)NC3CCNCC3)n3nc(-c4ccco4)nc23)n1
### Prompt Response body: label of entry with the larger Ki; valid values A , B . Pick one and reply with its label.
### Response A
(A: 200 nM, B: 65 nM)

---

Listed below are compounds with Ki for Adenosine receptor A3 (Homo sapiens), each taken from published literature.
PROPERTY NAME: Ki (nM)

CCOC(=O)c1cnn(-c2nc(NC3CCCCC3)c3ncn([C@@H]4O[C@H](CO)[C@@H](O)[C@H]4O)c3n2)c1 30
CNC(=O)[C@H]1O[C@@H](n2cnc3c(NCc4cc(Cl)ccc4OCc4cc(C)no4)ncnc32)[C@H](O)[C@@H]1N 5.8

P. COc1c(C)cc(-c2cn3c(=O)n(-c4ccccc4)nc3c(N)n2)cc1C
Q. N#Cc1c(N)nc(SCc2cccc(C(=O)O)c2)c(C#N)c1-c1ccco1
R. CCNC(=O)[C@H]1O[C@@H](n2cnc3c(N)nc(NCCc4ccc(CCC(=O)Nc5ccc(OC(C)=O)c([N+](=O)[O-])c5)cc4)nc32)[C@H](O)[C@@H]1O
S. Cn1cc2c(nc(NC(=O)Cc3ccsc3)n3nc(-c4ccco4)nc23)n1
### Prompt Please list these compounds in decreasing order of Ki. Your task in answering is to list the labels in the requested order.
### Response Q, R, P, S
